Test: in vivo
Settings: female, CD1, mouse, iv, 2 mg/kg
OUTCOME_MEASURE: half-life (h)

{"COMPOUND": "CCc1c(N2CCN(C(=O)c3ncccc3O)CC2)c(=O)n2nc(-c3ccc(CO)s3)nc2n1CC(=O)Nc1ccc(C(F)(F)F)cc1Cl [P9]", "half-life / h": 0.9}
{"COMPOUND": "CCc1c(N2CCN(C(=O)c3ncnc(C)c3O)CC2)c(=O)n2nc(-c3cc4c(s3)COC4)nc2n1CC(=O)Nc1ccc(C(F)(F)F)c2ccoc12 [P57]", "half-life / h": 1.2}

[a] CCc1c(N2CCN(C(=O)c3ncnc(C)c3O)CC2)c(=O)n2nc(-c3cc4c(s3)COC4)nc2n1CC(=O)Nc1ccc(Br)c2ccoc12 [P59]
[b] CCc1c(N2CCN(C(=O)c3ncccc3O)CC2)c(=O)n2nc(-c3cccnc3)nc2n1CC(=O)Nc1ccc(C(F)(F)F)cc1C [A1, reference compound]
Which of these two has the smaller recorded half-life: a or b ? # respond with the chosen item's label
a

###

Assay: in vivo
Conditions: female, CD1, mouse, po, 10 mg/kg
OUTCOME_MEASURE: Tmax (min)

{"COMPOUND": "CCc1c(N2CCN(C(=O)c3ncnc(C)c3O)CC2)c(=O)n2nc(-c3cc4c(s3)COC4)nc2n1CC(=O)Nc1ccc(C(F)(F)F)c2ccoc12 [P57]", "UNIT_LABEL": "min", "REPORTED": 30}

[a] CCc1c(N2CCN(C(=O)c3ncccc3O)CC2)c(=O)n2nc(-c3ccc(CO)s3)nc2n1CC(=O)Nc1ccc(C(F)(F)F)cc1Cl [P9]
[b] CCc1c(N2CCN(C(=O)c3ncnc(C)c3O)CC2)c(=O)n2nc(-c3cc4c(s3)COC4)nc2n1CC(=O)Nc1ccc(Br)c2ccoc12 [P59]
[c] CCc1c(N2CCN(C(=O)c3ncccc3O)CC2)c(=O)n2nc(-c3cccnc3)nc2n1CC(=O)Nc1ccc(C(F)(F)F)cc1C [A1, reference compound]
Arrange items by their Tmax values in increasing order. In plain terms: list the labels in the order you were asked to.
b, c, a
(b: 15 min, c: 30 min, a: 60 min)

###

System: SW48 colorectal cancer cells
Test: 2D antiproliferation on MSI-H SW48 cells, CTG, 5 days
Format: cell-based
Details: Homo sapiens; SW48, 0.038146973 nM; read-out: Test 2/Inhibition Rate
Item-by-item account of inhibition at 38.15 pM
Answer in %, number only, no unit symbol.

Worked cases, answers included:
{"MOLECULAR_STRING": "CCc1c(N2CCN(C(=O)c3ncnc(C)c3O)CC2)c(=O)n2nc(-c3cc4c(s3)COC4)nc2n1CC(=O)Nc1ccc(C(F)(F)F)cc1Cl", "TESTED_SYSTEM": "SW48 colorectal cancer cells", "UNIT_LABEL": "%", "inhibition at 38.15 pM": 11.3}
{"MOLECULAR_STRING": "CCc1c(N2CCN(C(=O)c3ncnc(C)c3O)CC2)c(=O)n2nc(-c3cc4cn[nH]c4s3)nc2n1CC(=O)Nc1ccc(C(F)(F)F)cc1Cl", "TESTED_SYSTEM": "SW48 colorectal cancer cells", "UNIT_LABEL": "%", "inhibition at 38.15 pM": -3.13}
{"MOLECULAR_STRING": "CCc1c(N2CCN(C(=O)c3ncnc(C)c3O)CC2)c(=O)n2nc(-c3cc4c(s3)COC4)nc2n1CC(=O)Nc1ccc(C(F)(F)F)cc1C", "TESTED_SYSTEM": "SW48 colorectal cancer cells", "UNIT_LABEL": "%", "inhibition at 38.15 pM": 18.6}

Kindly review the next compound as well.
Requested read-out inhibition at 38.15 pM, target or system SW48 colorectal cancer cells, entry CCc1c(N2CCN(C(=O)c3ncnc(C)c3O)CC2)c(=O)n2nc(-c3cc4c(s3)COC4)nc2n1CC(=O)Nc1ccc(Br)cc1Cl
-5.36

Origin of the recorded values: patent US20260217732A1
